Numbers sourced from patent US20170355774A1.

Catalogue of Kd values
- subject of test: T1, hGITR.mFc (human)
- T1 construct: soluble dimeric construct with mouse Fc; also called dimeric human GITR
- T1 chain: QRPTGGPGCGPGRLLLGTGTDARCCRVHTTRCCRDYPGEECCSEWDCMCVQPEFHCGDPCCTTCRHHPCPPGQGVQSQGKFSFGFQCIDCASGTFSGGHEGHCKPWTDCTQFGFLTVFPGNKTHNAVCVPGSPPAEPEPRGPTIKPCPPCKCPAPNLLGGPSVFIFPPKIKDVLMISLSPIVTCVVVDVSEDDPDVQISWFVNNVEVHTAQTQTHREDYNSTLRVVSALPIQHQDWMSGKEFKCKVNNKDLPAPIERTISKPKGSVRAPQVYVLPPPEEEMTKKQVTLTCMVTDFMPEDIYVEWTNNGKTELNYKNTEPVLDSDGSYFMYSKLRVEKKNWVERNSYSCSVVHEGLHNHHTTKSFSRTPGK
- assay text: SPR 37C, mAb capture

binder: H4H14521P (antibody, human IgG4, V domains shown, human IgG4 (H4H)) VH: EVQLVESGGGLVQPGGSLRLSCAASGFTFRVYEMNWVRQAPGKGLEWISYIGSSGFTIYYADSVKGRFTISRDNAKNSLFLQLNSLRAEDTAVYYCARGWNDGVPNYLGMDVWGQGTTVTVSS VL: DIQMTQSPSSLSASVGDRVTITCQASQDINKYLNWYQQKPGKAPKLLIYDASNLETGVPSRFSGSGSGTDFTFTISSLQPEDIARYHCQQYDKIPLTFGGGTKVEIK
value unit: nM
Kd: 0.389

binder: H1H14520P (antibody, human IgG1, V domains shown, human IgG1 (H1H)) VH: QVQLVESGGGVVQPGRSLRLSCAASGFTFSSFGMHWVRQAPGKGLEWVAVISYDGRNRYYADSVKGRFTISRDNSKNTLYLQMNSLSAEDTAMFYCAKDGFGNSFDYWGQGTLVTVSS VL: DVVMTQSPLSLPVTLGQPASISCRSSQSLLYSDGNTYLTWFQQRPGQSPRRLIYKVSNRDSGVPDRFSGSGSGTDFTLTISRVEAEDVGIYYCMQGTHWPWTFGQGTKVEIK
value unit: nM
Kd: 0.537

binder: H1H14503P (antibody, human IgG1, V domains shown, human IgG1 (H1H)) VH: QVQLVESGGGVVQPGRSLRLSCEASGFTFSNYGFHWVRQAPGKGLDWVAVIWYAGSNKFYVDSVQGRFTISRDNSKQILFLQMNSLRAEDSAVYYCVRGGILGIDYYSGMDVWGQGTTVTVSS VL: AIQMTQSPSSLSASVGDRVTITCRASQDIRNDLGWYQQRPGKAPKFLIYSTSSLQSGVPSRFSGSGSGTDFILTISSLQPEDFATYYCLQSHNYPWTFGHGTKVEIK
value unit: nM
Kd: 0.137

binder: H4H14508P (antibody, human IgG4, V domains shown, human IgG4 (H4H)) VH: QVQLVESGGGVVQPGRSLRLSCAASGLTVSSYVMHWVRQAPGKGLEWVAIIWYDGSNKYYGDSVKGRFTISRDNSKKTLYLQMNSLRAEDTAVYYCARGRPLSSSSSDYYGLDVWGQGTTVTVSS VL: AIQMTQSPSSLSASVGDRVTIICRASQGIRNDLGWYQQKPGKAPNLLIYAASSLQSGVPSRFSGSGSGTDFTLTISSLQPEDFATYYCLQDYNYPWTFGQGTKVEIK
value unit: nM
Kd: 0.597

binder: H4H14530P (antibody, human IgG4, V domains shown, human IgG4 (H4H)) VH: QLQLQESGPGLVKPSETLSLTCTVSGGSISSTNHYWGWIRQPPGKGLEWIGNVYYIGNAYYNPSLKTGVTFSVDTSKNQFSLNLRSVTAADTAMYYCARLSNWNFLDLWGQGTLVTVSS VL: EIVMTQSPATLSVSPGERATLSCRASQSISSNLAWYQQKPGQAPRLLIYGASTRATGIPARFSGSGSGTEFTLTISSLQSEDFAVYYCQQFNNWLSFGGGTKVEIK
value unit: nM
Kd: 0.63
